systemTested: LmjIPCS (inositol phosphorylceramide synthase from L. major) (Leishmania major)
Sequence (E9AFX2 whole entry): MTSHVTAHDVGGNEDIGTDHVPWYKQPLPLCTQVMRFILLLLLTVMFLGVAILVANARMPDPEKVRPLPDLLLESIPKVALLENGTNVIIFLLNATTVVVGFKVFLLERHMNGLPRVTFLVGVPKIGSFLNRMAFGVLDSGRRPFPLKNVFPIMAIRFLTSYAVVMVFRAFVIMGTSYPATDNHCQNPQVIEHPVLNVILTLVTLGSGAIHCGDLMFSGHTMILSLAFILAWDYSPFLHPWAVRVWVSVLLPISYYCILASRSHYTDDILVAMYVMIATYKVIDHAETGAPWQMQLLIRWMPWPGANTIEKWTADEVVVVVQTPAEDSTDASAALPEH
measurementDescription: biochemical
Format: biochemical
conditionNotes: read-out: 20mM inhibition LmjIPCS
Where a SMILES comes first, the peptide text is derived from it.
Exercise: state measured inhibition at 20000 µM for each of the molecules provided.
Please reply with the bare figure in % and do not write the unit itself.

Kindly note the recorded inhibition at 20000 µM for CC(=O)N[C@@H](CC(C)C)C(=O)O [ACETYL-L-LEUCINE] , which is 8

Measured inhibition at 20000 µM of CC(C)C[C@H](NC(=O)CN)C(=O)N[C@@H](Cc1ccccc1)C(=O)O (H-Gly-Leu-Phe-OH) : 11

What the record says about CN[C@H](CC(C)C)C(=O)N[C@H]1C(=O)N[C@@H](CC(N)=O)C(=O)N[C@H]2C(=O)N[C@H]3C(=O)N[C@H](C(=O)N[C@H](C(=O)O)c4cc(O)cc(O)c4-c4cc3ccc4O)[C@H](O)c3ccc(c(Cl)c3)Oc3cc2cc(c3O[C@@H]2O[C@H](CO)[C@@H](O)[C@H](O)[C@H]2O[C@H]2C[C@](C)(N)[C@H](O)[C@H](C)O2)Oc2ccc(cc2Cl)[C@H]1O [VANCOMYCIN] : inhibition at 20000 µM is 31

The measured inhibition at 20000 µM associated with CC(=O)OCC(=O)[C@@]1(O)[C@H](OC(C)=O)C[C@H]2[C@@H]3CCC4=CC(=O)C=C[C@]4(C)[C@@]3(F)[C@@H](O)C[C@@]21C [TRIAMCINOLONE DIACETATE] reads 10

Looking up COc1cc2c(c(OC)c1OC)-c1ccc(=O)c(O)cc1[C@@H](NC(C)=O)CC2 [COLCHICEINE] , I found its inhibition at 20000 µM recorded as 9
